system: human vascular smooth muscle cells; test: Inhibition of adhesion of human vascular smooth muscle cells to immobilized human vitronectin; assay type: cell-based; settings: read-out: IC50, inhibitory activity against the adhesion of human vascular smooth muscle cells to vitronectin
pIC50: −log10 of the molar value.
OBSERVED_PROPERTY: pIC50

SMILES_NOTATION	OBSERVED_PROPERTY	VALUE_REPORTED
O=C(N[C@@H](CNC(=O)c1ccc(N2CCN(C3=NCCCN3)CC2)cc1)C(=O)O)OCc1ccccc1	pIC50	6.12
